Assay: self-splicing fitness, log relative to wild type (ln ratio); higher = more splicing; Tetrahymena group I intron in knt gene, E. coli kanamycin selection, DiMSum; sequences stand for … in CUCUCU…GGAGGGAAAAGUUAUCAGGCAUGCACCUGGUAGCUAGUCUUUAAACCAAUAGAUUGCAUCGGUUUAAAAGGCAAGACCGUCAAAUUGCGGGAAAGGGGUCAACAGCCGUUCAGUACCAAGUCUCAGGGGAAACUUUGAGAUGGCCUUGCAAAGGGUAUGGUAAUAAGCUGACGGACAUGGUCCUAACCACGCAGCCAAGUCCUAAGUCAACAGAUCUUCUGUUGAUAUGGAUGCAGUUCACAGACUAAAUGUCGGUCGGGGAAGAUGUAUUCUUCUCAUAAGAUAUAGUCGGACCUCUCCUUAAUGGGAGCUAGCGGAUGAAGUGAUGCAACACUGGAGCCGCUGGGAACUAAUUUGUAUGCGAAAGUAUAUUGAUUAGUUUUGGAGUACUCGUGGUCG;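 also: selection with 25 µg/mL kanamycin versus none on LB agar overnight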
Settings: 37 °C
PROPERTY MEASURED: self-splicing fitness (ln)
Keep the answer to the number alone.

[
  {
    "SEQUENCE": "AGAGAGCAAUAUUACGAUAA",
    "self-splicing fitness (ln)": -2.71
  }
]

## Input Which value of self-splicing fitness (ln) has been reported for `CCUCAGCAAUAUUACGUGUC` in the records?
## Output -2.48

## Input Data request, read-out self-splicing fitness (ln), for `AAGGAGCAAUAUUACGGACC`
## Output -2.97

## Input If you can, please state the reported self-splicing fitness (ln) value of `AUACAGCAAUAUUACGACAG` .
## Output -2.03

## Input Would you mind telling me what self-splicing fitness (ln) value was observed for `UUGAAGCAAUAUUACGUGAG` ?
## Output -0.805

## Input Entry under review: `UUUUAGCAAUAUUACGGUAG` . Reported self-splicing fitness (ln)?
## Output -1.74

## Input Request the reported self-splicing fitness (ln) associated with `GGCCAGCAAUAUUACGUGAC`
## Output -1.16

## Input What value of self-splicing fitness (ln) has been reported for the following sequence? `AUCCAGCAAUAUUACGAGCC`
## Output -3.32

## Input State the recorded self-splicing fitness (ln) for this entry: `GACAAGCAAUAUUACGGAUU`
## Output -0.656

## Input What value of measured self-splicing fitness (ln) is listed for `GAUCAGCAAUAUUACGCUAA` ?
## Output -0.316

## Input Which self-splicing fitness (ln) value belongs to `UCUGAGCAAUAUUACGGGUU` ?
## Output -2.5

## Input I would be grateful if you could share the reported self-splicing fitness (ln) for `UCAUAGCAAUAUUACGACGU` .
## Output -1.37

## Input Consider the sequence shown here: `AUACAGCAAUAUUACGUUUG` What is its recorded self-splicing fitness (ln)?
## Output -2.35

## Input Field request: self-splicing fitness (ln) | item: `CAUAAGCAAUAUUACGUUAC`
## Output -2.15

## Input Fill blank: measured self-splicing fitness (ln) of the sequence `GUCCAGCAAUAUUACGUCCC` is ____.
## Output 0.424

## Input Bench note: what self-splicing fitness (ln) did `CGGGAGCAAUAUUACGUGUU` show?
## Output -2.2

## Input Looking for the measured self-splicing fitness (ln) of `AAAGAGCAAUAUUACGCUAU` , can you help?
## Output -2.46

## Input Requested field: self-splicing fitness (ln). Item: `AUGCAGCAAUAUUACGUACU`
## Output 0.441

## Input Which self-splicing fitness (ln) value is on record for `CUGAAGCAAUAUUACGCGAC` ?
## Output -1.14

## Input Entry under review: `AUUGAGCAAUAUUACGUUGC` . Reported self-splicing fitness (ln)?
## Output -1.64

## Input Can you look up the measured self-splicing fitness (ln) of `UGGAAGCAAUAUUACGAUAC` for me?
## Output -2.54

## Input Dear colleague, I am looking for the recorded self-splicing fitness (ln) of the following sequence: `GCACAGCAAUAUUACGCCUA`
## Output -0.373

## Input Could you share which self-splicing fitness (ln) value was measured for `CAAAAGCAAUAUUACGCGUG` ?
## Output -2.11

## Input Request the reported self-splicing fitness (ln) associated with `UGGCAGCAAUAUUACGGCUU`
## Output 0.316

====

Test: self-splicing fitness, log relative to wild type (ln ratio); higher = more splicing; Tetrahymena group I intron in knt gene, E. coli kanamycin selection, DiMSum; sequences stand for … in CUCUCU…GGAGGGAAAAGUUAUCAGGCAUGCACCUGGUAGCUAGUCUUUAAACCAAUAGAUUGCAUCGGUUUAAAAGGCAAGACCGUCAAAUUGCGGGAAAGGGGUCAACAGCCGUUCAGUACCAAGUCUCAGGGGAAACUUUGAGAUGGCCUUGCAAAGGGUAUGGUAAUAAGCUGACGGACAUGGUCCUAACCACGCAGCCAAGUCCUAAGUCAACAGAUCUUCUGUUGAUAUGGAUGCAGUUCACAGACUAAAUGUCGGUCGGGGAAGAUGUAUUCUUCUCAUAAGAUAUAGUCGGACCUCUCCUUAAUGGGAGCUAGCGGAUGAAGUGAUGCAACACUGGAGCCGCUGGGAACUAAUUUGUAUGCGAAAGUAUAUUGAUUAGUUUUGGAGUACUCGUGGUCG
Settings: 30 °C
Category scheme (self-splicing fitness (ln)): low end = under -3, middle = from -3 up to -1, high end = -1 and over

Here are 5 sequences together with their reported answers.
[
  {
    "SEQUENCE": "CUGCAGCAAUAUUACGAUGA",
    "LABEL VALUE": "low end"
  },
  {
    "SEQUENCE": "CGUAAGCAAUAUUACGCCGA",
    "LABEL VALUE": "low end"
  },
  {
    "SEQUENCE": "CACAAGCAAUAUUACGAAGU",
    "LABEL VALUE": "low end"
  },
  {
    "SEQUENCE": "UGGAAGCAAUAUUACGGCGA",
    "LABEL VALUE": "high end"
  },
  {
    "SEQUENCE": "GGCAAGCAAUAUUACGCUGC",
    "LABEL VALUE": "low end"
  }
]

## Input Class (by measured self-splicing fitness (ln)) for `AGAAAGCAAUAUUACGAACG`
## Output high end

## Input Please indicate the class for `CAAUAGCAAUAUUACGGCGC` based on its self-splicing fitness (ln).
## Output low end

## Input Place this sequence in its band: `CCUUAGCAAUAUUACGCUUU`
## Output low end

## Input For `GACGAGCAAUAUUACGCUCA` , which self-splicing fitness (ln) bin applies?
## Output middle

## Input Band assignment needed for `UACCAGCAAUAUUACGUAUA` please.
## Output high end

## Input Class for `GGGCAGCAAUAUUACGUAGC` ?
## Output middle

## Input Could you tell me which band `AGAUAGCAAUAUUACGUGUG` belongs to?
## Output middle

## Input // return the class label for `GGGGAGCAAUAUUACGACAC`
## Output high end

## Input Consider `UAGCAGCAAUAUUACGUAUG` . To which self-splicing fitness (ln) class does it belong?
## Output middle

====

Experiment: self-splicing fitness, log relative to wild type (ln ratio); higher = more splicing; Tetrahymena group I intron in knt gene, E. coli kanamycin selection, DiMSum; sequences stand for … in CUCUCU…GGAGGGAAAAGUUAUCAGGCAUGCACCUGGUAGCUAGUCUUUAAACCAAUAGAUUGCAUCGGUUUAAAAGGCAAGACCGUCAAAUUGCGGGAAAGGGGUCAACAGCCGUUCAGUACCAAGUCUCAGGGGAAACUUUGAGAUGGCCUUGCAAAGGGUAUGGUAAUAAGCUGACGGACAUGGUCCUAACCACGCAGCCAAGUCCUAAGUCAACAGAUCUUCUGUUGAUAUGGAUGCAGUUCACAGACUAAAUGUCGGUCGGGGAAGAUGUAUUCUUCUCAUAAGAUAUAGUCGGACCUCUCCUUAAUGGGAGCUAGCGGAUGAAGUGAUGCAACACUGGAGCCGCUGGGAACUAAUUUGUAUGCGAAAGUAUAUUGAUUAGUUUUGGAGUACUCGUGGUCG
Details: 37 °C
Entry flag: 1 if self-splicing fitness (ln) reaches -2; 0 if it does not.

# example entries with known answers
[
  {
    "SEQUENCE": "CAUGAGCAAUAUUACGCAGA",
    "LABEL VALUE": 1
  },
  {
    "SEQUENCE": "GCGUAGCAAUAUUACGACUA",
    "LABEL VALUE": 1
  },
  {
    "SEQUENCE": "GGCAAGCAAUAUUACGUAAG",
    "LABEL VALUE": 1
  },
  {
    "SEQUENCE": "GACCAGCAAUAUUACGUGCG",
    "LABEL VALUE": 1
  }
]

## Input Please check the record `GGGAAGCAAUAUUACGGAUG` and state if its self-splicing fitness (ln) is at or above -2.
## Output 1

## Input Decide: is the reported value of self-splicing fitness (ln) for `GACCAGCAAUAUUACGUAGA` equal to or greater than -2?
## Output 1

## Input Given the entry `AAAAAGCAAUAUUACGAUAG` , answer whether its self-splicing fitness (ln) meets or surpasses -2.
## Output 1

## Input Has `CUACAGCAAUAUUACGACAU` a recorded self-splicing fitness (ln) greater than or equal to -2?
## Output 0

## Input Exam item: decide whether the reported self-splicing fitness (ln) for `GCUGAGCAAUAUUACGGCCC` is at least -2.
## Output 0

## Input Is the recorded value of self-splicing fitness (ln) equal to or greater than -2 for this sequence? `CGGUAGCAAUAUUACGCAUU`
## Output 0

## Input Check the entry `GUGCAGCAAUAUUACGUUAG` : does self-splicing fitness (ln) equal or exceed -2?
## Output 1

## Input Please indicate if the recorded self-splicing fitness (ln) for `UGUAAGCAAUAUUACGGUUU` meets or exceeds -2.
## Output 1
